The measured values listed here are drawn from patent US20190167593A1.

EXPERIMENTAL DETAILS: physchem
Format: physicochemical
CONDITION SET: pH 7.8; Non-lactic acid
MEASUREMENT TYPE: solubility

Inquiry: Report solubility for "CCCCS(=O)(=O)N[C@@H]1CCCN([C@@H]2C=C(C(=O)O)C[C@H](NC(=N)N)[C@H]2NC(C)=O)C1"
Reply text: 2500 µg/mL

====

EXPERIMENTAL DETAILS: physchem
Format: physicochemical
CONDITION SET: water; molar ratio compound:acid as listed per salt; unit printed in b135 only
MEASUREMENT TYPE: solubility (µg/mL)
Express your answer in µg/mL, writing the number without its unit.

Inquiry: Provide one value: measured solubility of "CCCCS(=O)(=O)N[C@@H]1CCCN([C@@H]2C=C(C(=O)O)C[C@H](NC(=N)N)[C@H]2NC(C)=O)C1"
Reply text: 2500
